Below, each of the molecules is paired with its reported growth value.
System: M14 melanoma
Assay: NCI-60 one-dose screen, 48 h (100 = growth as untreated, 0 = no growth, -100 = all killed)
Settings: 10 µM unless noted
This is part of a sample that, as a whole, favours compounds with a hit. Of some 83,000 tested, about 20% had one in any assay. Activity calls are given as the source filed them. Rule for the calls: active = growth percent below 10; inactive = the rest.

Molecule	growth
Cc1ccc(C(=O)COc2cccc(/C=C3\Oc4ccccc4C3=O)c2)cc1	101% (inactive)
COc1cccc(-c2nc3sccn3c2-c2ccnc(NCCNS(=O)(=O)c3ccc(C(F)(F)F)cc3)c2)c1	38.4% (inactive)
CC(C)C(NC(=O)C1(NC(=O)OCc2ccccc2)CCCC1)C(=O)O (stereo not drawn)	102% (inactive)
CC(C)CC(NC(=O)CN(Cc1ccccc1)S(C)(=O)=O)C(=O)O (stereo not drawn)	97% (inactive)
Cc1nc2c(c(N3CCCc4ccccc43)n1)CCC2	-17.6% (active)
O=C(Nc1ccc(Cl)cc1)Nc1ccc(Cl)c(C(F)(F)F)c1	11.8% (inactive)
COc1cc(C2CC(=O)Nc3c2c(C)nn3-c2nc3ccccc3[nH]2)c(OC)c(OC)c1OC (stereo not drawn)	17% (inactive)
CNc1ccc(NC)c2c1C(=O)c1ccccc1C2=O	113% (inactive)
Cn1c(=O)c2[nH]c(NN)nc2n(C)c1=O	102% (inactive)
O=C1CCc2c(sc3[nH]c(=S)n(-c4ccc(OC(F)(F)F)cc4)c(=O)c23)C1	59.6% (inactive)
N#Cc1c(-c2ccccc2)cc(-c2ccc(Nc3nc(Nc4ccc(F)cc4)nc(Nc4ccc(F)cc4)n3)cc2)nc1N	108% (inactive)
N#C/C(=C/C=C/c1cccc(Cl)c1)S(=O)c1ccccc1 (stereo not drawn)	-52.6% (active)
Cc1ccc(S(=O)(=O)n2cc(CNc3ccc(N4CCOCC4=O)cc3)c3ccccc32)cc1	93.3% (inactive)
Cc1ccc(CCC(=O)Nc2ncc(Cc3cc(Cl)ccc3Cl)s2)o1	6.18% (active)
COc1cc2c(cc1-c1c(C)noc1C)ncc1nc(C3CCC(F)(F)CC3)n(C3CCC(OC(F)F)CC3)c12 (stereo not drawn)	55.1% (inactive)
COc1ccc(NC(=O)CSc2nnc(-c3cc(-c4ccccc4)nc4ccccc34)n2-c2ccccc2)cc1	98.1% (inactive)
COc1cc(C2NC(=O)c3ccccc3N2)ccc1OCCCCCOc1c(OC)cc(C2=NOC(c3cc(OC)c(OC)c(OC)c3)C2)cc1OC (stereo not drawn)	84.3% (inactive)
CNC(=O)NCC1OC(n2cnc3c(NC(=O)Nc4ccccc4)ncnc32)C(O[Si](C)(C)C(C)(C)C)C1CC(=O)N(C)OC (stereo not drawn)	34.4% (inactive)
COc1cccc(-c2nn(-c3ccccc3)cc2-c2ccnc(NCCCNC(=O)c3cccc(C(F)(F)F)c3)c2)c1	28.2% (inactive)
Cc1ccc(Cc2cnc(NC(=O)c3ccc4noc(-c5ccccc5)c4c3)s2)cc1	93.4% (inactive)
C[n+]1cc2c3c(ccc2c2ccc4cc5c(cc4c21)OCO5)OCO3	-76.8% (active)
N#CC1=C(NC=O)Oc2c(ccc3ccccc23)C1c1ccccc1 (stereo not drawn)	10.2% (inactive)
c1ccc2c(c1)nc(CN1CCOCC1)n1cc(N3CCCC3)nc21	107% (inactive)
Cc1cc(NCc2cc(Nc3ccnc4cc(Cl)ccc34)ccc2F)nc(Cl)n1	38.7% (inactive)
O=c1cc(-c2ccc(Cl)cc2)[nH]c2ccccc12	71.8% (inactive)
O=C1/C(=C2/C=Nc3ccccc32)N(O)c2ccccc21	87.4% (inactive)
NC(=N\N=C/c1cccc([N+](=O)[O-])c1)/C(N)=N\N=C/c1cccc([N+](=O)[O-])c1	92.8% (inactive)
COc1cc(C(=O)c2cc(C)c3[nH]c4ccc(Cl)cc4c3c2C)cc(OC)c1OC	17.5% (inactive)
Cc1nn(-c2ccccc2)c2nc3c(c(-c4ccc(Cl)cc4)c12)CNC1(CCSCC1)N3	94.1% (inactive)
Cc1ccc2[nH]c(=O)c3c(c2c1)OC(N)=C(C#N)C31c2cc(Br)ccc2-c2ccc(Br)cc21	55.1% (inactive)
O=C(O)c1ccc2c(c1)CCC2	101% (inactive)
O=C(Nc1cccc(Cl)c1)c1cc(N=Nc2ccc([N+](=O)[O-])cc2Cl)ccc1O	103% (inactive)
CCCCCCCOc1c(OC)cc(C2CC(=O)Nc3c2c(C)nn3-c2nc3ccccc3[nH]2)cc1OC (stereo not drawn)	4.61% (active)
